System: MALME-3M melanoma
Experiment: NCI-60 one-dose screen, 48 h (100 = growth as untreated, 0 = no growth, -100 = all killed)
Conditions: 10 µM unless noted
About 83,000 compounds went through this panel and 20% of them were active in at least one assay; those are over-represented in the sample as a whole.
measureName: growth (%)
Return type: number; implicit unit %.

Examples with their reported growth follow.
[[record]]
smilesstr = "Cn1cc(-c2csc(-c3c[nH]c4ncccc34)n2)c2cc(F)cnc21"
numericvalue = 95.5

[[record]]
smilesstr = "Cc1cc(C)n2nc(SCC(=O)Nc3sc4c(c3C(N)=O)CCC4)nc2n1"
numericvalue = 106

[[record]]
smilesstr = "COc1ccc(C(=O)/C=C/c2c(Cl)nc3c(c(C)nn3-c3ccccc3)c2-c2ccc(Br)cc2)cc1"
numericvalue = 102


(Q) Give its growth value. Item: Cc1cc(Cl)ccc1Nc1nc(C(F)(F)F)ccc1C(=O)NCC(=O)N/N=C/c1c(Cl)cccc1Cl
(A) 92.2

(Q) Give its growth value. Item: O=C(Oc1ccc[nH]c1=O)c1cccc(Cl)c1
(A) 104
